Every entry's value here was drawn from patent US3960863A.

Kindly state ED50 for each of the entries shown.
system: Thiopental-induced Anesthesia; experiment: Potentiating effect of thiopental-induced anesthesia (anesthesia-potentiating effect); assay type: in vivo, mouse; conditions: 0.5 h; mouse, oral; sodium thiopental 30 mg/kg i.v. after 30 minutes; ED50 = dose doubling duration of loss of righting reflex vs control; Litchfield-Wilcoxon; 95% confidence limits in parentheses; read-out: Potentiating Effect of Thiopental-induced Anesthesia ED50
Give bare numbers, in mg/kg.

Worked examples follow.
1. Cc1ccn2c(=O)c(CCN3CCN(c4ccc(Cl)cc4)CC3)c(C)nc2c1 | 2.9
2. Cc1ccn2c(=O)c(CCN3CCN(c4cccc(Cl)c4)CC3)c(C)nc2c1 | 0.92
3. Cc1cccc(N2CCN(CCc3c(C)nc4cc(C)ccn4c3=O)CC2)c1 | 0.8

Kindly give each listed record's ED50.
1. Cc1ccc(N2CCN(CCc3c(C)nc4c(C)cccn4c3=O)CC2)cc1
2. Cc1cccc(N2CCN(CCc3c(C)nc4cc(C)cc(C)n4c3=O)CC2)c1
3. COc1cccc(N2CCN(CCc3c(C)nc4cc(C)ccn4c3=O)CC2)c1
4. Cc1cccc(N2CCN(CCc3c(C)nc4c(C)cccn4c3=O)CC2)c1

1. 1.8
2. 1.7
3. 0.7
4. 1.25

----------
test: Acute toxicity in mouse (LD50); details: in vivo, po, 95% confidence limits in parentheses, read-out: Acute Toxicity in mouse LD50 (p.o.)
property measured: LD50

Worked examples follow.
1) CN(C)CCCN1c2ccccc2Sc2ccc(Cl)cc21 [chlorpromazine, reference compound] | 245 mg/kg
2) Cc1ccn2c(=O)c(CCN3CCN(c4cccc(Cl)c4)CC3)c(C)nc2c1 | 635 mg/kg

Now for a further molecule.
Look up LD50 for this molecule: Cc1cccc(N2CCN(CCc3c(C)nc4cc(C)ccn4c3=O)CC2)c1
480 mg/kg
